- Tested on: urease
- test: Long term urease inhibition, inhibited Cazenovia soil preincubated or left open 11 days before urea application
- Type: biochemical
- condition: 200 micrograms compound, no preincubation
Please use T whenever % Inhibition, No Preincubation is not below 90%, and F whenever it is.

NP(N)(=O)Oc1ccccc1 [Phenyl Phosphorodiamidate, phenyl phosphorodiamidate, reference compound]    F
CCCCNP(N)(N)=O [Compound 9, N-(n-Butyl)phosphoric Triamide]    T
CN(C1CCCCC1)P(N)(N)=O [Compound 15, N-Cyclohexyl-N-methylphosphoric Triamide]    F
CCNP(N)(N)=O [Compound 8, N-Ethylphosphoric Triamide]    T

[Q] Reported % Inhibition, No Preincubation at or above 90%? CCCCCCCCNP(N)(N)=O [Compound 12, N-(n-Octyl)phosphoric Triamide]
[A] T

---

- System: urease
- test: Long term urease inhibition, inhibited Cazenovia soil preincubated or left open 11 days before urea application
- Type: biochemical
- condition: 200 micrograms compound, allowed to volatilize for 11 days prior to urea application
Each entry gets Condition not met if its % Inhibition, Preincubated for 11 days Open stays under 70%, and Condition met if its % Inhibition, Preincubated for 11 days Open is 70% or above.

Worked set:
CN(C1CCCCC1)P(N)(N)=O [Compound 15, N-Cyclohexyl-N-methylphosphoric Triamide]    Condition not met
CCCCNP(N)(N)=S [Compound 10, N-(n-Butyl)thiophosphoric Triamide]    Condition met
CCCCCCCCNP(N)(N)=O [Compound 12, N-(n-Octyl)phosphoric Triamide]    Condition not met

[Q] Is % Inhibition, Preincubated for 11 days Open at least 70%? Consider NP(N)(=O)Oc1ccccc1 [Phenyl Phosphorodiamidate, phenyl phosphorodiamidate, reference compound]
[A] Condition not met

[Q] One more compound: CCC(C)NP(N)(N)=O (stereo not shown) [Compound 11, N-(sec-Butyl)phosphoric Triamide]
[A] Condition met

[Q] Same thing, different compound: CCCCNP(N)(N)=O [Compound 9, N-(n-Butyl)phosphoric Triamide]
[A] Condition met

---

- Tested on: urease
- test: Soil urease inhibition efficacy test, Cazenovia silt loam (New York soil)
- Format: biochemical
- condition: Cazenovia silt loam pH 7.3; 800 micrograms compound and 42.8 mg urea per 20 g soil; 25° C., three days
Entry flag: criterion met if % Inhibition Cazenovian pH 7.3 reaches 90%; criterion not met if it does not.

As a guide, the following entries are already answered.
CCC(C)NP(N)(N)=O (stereo not drawn) [Compound 11, N-(sec-Butyl)phosphoric Triamide]    criterion met
NP(N)(=O)N1CCCCC1    criterion met
CCCCNP(N)(N)=S [Compound 10, N-(n-Butyl)thiophosphoric Triamide]    criterion met

[Q] Identify whether the reported % Inhibition Cazenovian pH 7.3 of the following molecule is 90% or greater: CCN(CC)P(N)(N)=O [Compound 1, N,N-Diethylphosphoric Triamide]
[A] criterion met

[Q] Now the same for CCN(CC)P(N)(N)=S [Compound 14, N,N-Diethylthiophosphoric Triamide]
[A] criterion not met

---

Recorded % Inhibition Cazenovian pH 7.3 by entry
- Tested on: urease
- test: Soil urease inhibition efficacy test, Cazenovia silt loam (New York soil)
- Format: biochemical
- condition: Cazenovia silt loam pH 7.3; 800 micrograms compound and 42.8 mg urea per 20 g soil; 25° C., three days
# number only, unit % dropped from output

Solved entries (count: 4):
CN(Cc1ccccc1)P(N)(N)=O [Compound 4, N-Benzyl-N-methylphosphoric Triamide]    96
NP(N)(=O)NC1CCCCC1 [Compound 5, N-Cyclohexylphosphoric Triamide]    98
CC(C)NP(N)(N)=O [Compound 7, N-Isopropylphosphoric Triamide]    97
CCCCCCCCCCCCNP(N)(N)=O [Compound 13, N-(n-Dodecyl)phosphoric Triamide]    81

[Q] // lookup % Inhibition Cazenovian pH 7.3 | system=urease | key= CCCCCCCCNP(N)(N)=O [Compound 12, N-(n-Octyl)phosphoric Triamide]
[A] 98

[Q] Note, next up: CCCCNP(N)(N)=O [Compound 9, N-(n-Butyl)phosphoric Triamide]
[A] 99

[Q] Follow-up entry: C=CCNP(N)(N)=O [Compound 3, N-Allylphosphoric Triamide]
[A] 93

[Q] Next: CN(C)P(N)(N)=O [Compound 2, N,N-Dimethylphosphoric Triamide]
[A] 98

[Q] Follow-up entry: CCNP(N)(N)=O [Compound 8, N-Ethylphosphoric Triamide]
[A] 99

---

- System: urease
- test: Soil urease inhibition efficacy test, Plano silt loam (Wisconsin soil)
- Type: biochemical
- condition: Plano silt loam pH 5.3; 800 micrograms compound and 42.8 mg urea per 20 g soil; 25° C., three days
- Procedure: Efficacy tests were conducted to evaluate the efficacy of certain representative phosphoric triamide compounds as urease inhibitors. The inhibition tests were run in a New York soil (Cazenovia silt loam, pH 7.0 or 7.3) or in a Wisconsin Soil (Plano silt loam, pH 5.3). […] The extracts were then analyzed for remaining urea using an autoanalyzer. Percent inhibition was calculated as […]
So basically: % Inhibition Wisconsin pH 5.3 at 50% or higher? That is True. Lower than 50%? That is False.

[Q] Could you tell me if the measured % Inhibition Wisconsin pH 5.3 of CCN(CC)P(N)(N)=S [Compound 14, N,N-Diethylthiophosphoric Triamide] reaches 50% or more?
[A] True

[Q] For CCCCNP(N)(N)=O [Compound 9, N-(n-Butyl)phosphoric Triamide] then?
[A] True

[Q] Moving on to CN(C1CCCCC1)P(N)(N)=O [Compound 15, N-Cyclohexyl-N-methylphosphoric Triamide]
[A] False

[Q] Repeat with CCCCCCCCCCCCNP(N)(N)=O [Compound 13, N-(n-Dodecyl)phosphoric Triamide]
[A] False

[Q] Then what about the compound CCC(C)NP(N)(N)=O (centres unmarked) [Compound 11, N-(sec-Butyl)phosphoric Triamide] ?
[A] True

[Q] Now consider CCCCNP(N)(N)=S [Compound 10, N-(n-Butyl)thiophosphoric Triamide] and answer again.
[A] True

[Q] Repeat with CCNP(N)(N)=O [Compound 8, N-Ethylphosphoric Triamide]
[A] False
